Where these numbers come from: patent US20250171542A1

MEASUREMENT_TARGET: human PD-L1 expressed on cell surface (human, UniProt Q9NZQ7 19-290)
Sequence (Q9NZQ7 19-290 limits assumed): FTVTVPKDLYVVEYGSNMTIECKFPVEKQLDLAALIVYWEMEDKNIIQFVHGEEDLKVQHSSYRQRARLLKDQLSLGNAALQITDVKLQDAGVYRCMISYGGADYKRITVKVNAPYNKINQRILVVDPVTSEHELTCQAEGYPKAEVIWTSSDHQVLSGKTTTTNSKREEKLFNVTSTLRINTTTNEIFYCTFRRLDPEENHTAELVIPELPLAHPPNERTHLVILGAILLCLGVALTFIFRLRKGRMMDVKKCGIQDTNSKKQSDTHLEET
ASSAY_EXPLANATION: cell-based or functional assay
READOUT_LABEL: Internalization (%), FACS, 1 µg/ml, 2 h
Please reply with the bare figure in % and do not write the unit itself.

**Query** Give reported Internalization (%), FACS, 1 µg/ml, 2 h value for 56E5 (antibody, human IgG1, V domains shown) VH: QEQLEESGGGLVQPEGSLTLTCTASGFSFSGDYYMSWVRQAPGKGLEWIASIYTGSLNTYYATWAKGRFTISLTSSTTVTLQMTSLTAADTATYFCARRHKNADYGHFDLWGPGTLVTVSS VL: YDMTQTPGSVEVAVGGTVTIKCQASQSINDRLAWYQQTPGQPPKLLIYGASTLASGVPSRFKGSGSGTEFTLTISDLECADAATYYCQQGWTVSSLDNAFGGGTEVVAK
**Result** 23.8

**Query** Recall and state the measured Internalization (%), FACS, 1 µg/ml, 2 h for 74A9 (antibody, human IgG1, V domains shown) VH: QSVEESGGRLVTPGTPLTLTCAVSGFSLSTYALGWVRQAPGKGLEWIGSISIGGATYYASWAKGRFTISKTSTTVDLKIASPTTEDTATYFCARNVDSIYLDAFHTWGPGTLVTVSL VL: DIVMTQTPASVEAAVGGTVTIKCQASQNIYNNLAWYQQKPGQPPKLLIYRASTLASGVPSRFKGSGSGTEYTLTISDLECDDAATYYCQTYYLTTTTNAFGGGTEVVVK .
**Result** 17.7

**Query** Write down Internalization (%), FACS, 1 µg/ml, 2 h measured for item 27A2 (antibody, human IgG1, V domains shown) VH: QEQLEESGGGLVQPEGSLTLTCTASGFSFSSNHYMSWVRQAPGKGLEWIGSIGVGSGITDYASWAKGRFTISKASSTTLTLQMTTLTAADTAIYFCARWTSGGGGFGLWGPGTLVTVSS VL: QVLTQTSSPVSAAVGGTVTINCQSSQTIYSDYLFWYQQTPGQPPKLLIYQTSTLASGVPSRFKGSGSGTEFTLTISEIQCDDAATYYCQGYYSGYIWTFGGGTEVVVR
**Result** 13.7
